assay: Blood levels and half-life of BL-P2024 after oral administration of various doses to mice (Table 5); format: in vivo; conditions: mouse, oral 200 mg/kg, 15 min, assay organism S. aureus A9606, read-out: Blood level
readout_name: concentration at […] (ng/mL)
Just the number in ng/mL, nothing appended.

Task: // query concentration at […] value for entry CC(C)(C)C(=O)OCOC(=O)C1N2C(=O)CC2S(=O)(=O)C1(C)CCl (stereo not shown) [BL-P2024]
Result: 14700

---

experiment: Blood levels and half-life of BL-P2024 after oral administration of various doses to mice (Table 5); format: in vivo; conditions: mouse, oral 100 mg/kg, 150 min, read-out: Blood level
readout_name: concentration at […] (ng/mL)
Kindly answer with a numeric value in ng/mL, unit omitted.

Task: Request the reported concentration at […] associated with CC(C)(C)C(=O)OCOC(=O)C1N2C(=O)CC2S(=O)(=O)C1(C)CCl (stereo not shown) [BL-P2024]
Result: 4600

---

assay: Blood levels after oral administration to mice (Table 4); assay type: in vivo; details: mouse, 100 mg/kg, oral 100 mg/kg, assay organism S. aureus A-9606
readout_name: half-life
Units required after the number.

Task: Item CC(C)(C)C(=O)OCOC(=O)C1N2C(=O)CC2S(=O)(=O)C1(C)CCl (stereo not shown) [BL-P2024] has what recorded half-life?
Result: 1 h

---

test: Blood levels after oral administration to mice (Table 4); format: in vivo; details: mouse, 100 mg/kg, oral 100 mg/kg, 60 min, assay organism S. aureus A-9606, read-out: Blood level
readout_name: concentration at 1 h (µg/mL)
Express the result in µg/mL but write the number alone.

Task: # get_value(readout='concentration at 1 h', item= CC1(CCl)C(C(=O)O)N2C(=O)CC2S1(=O)=O (stereo not shown) [BL-P2013] )
Result: 3

---

test: Blood levels after oral administration to mice (Table 4); format: in vivo; settings: mouse, 100 mg/kg, oral 100 mg/kg, 120 min, assay organism E. coli A-9675, read-out: Blood level
readout_name: concentration at 2 h (ng/mL)
Field format: number, assumed ng/mL, no unit text.

Task: Which concentration at 2 h value belongs to CC1(CCl)C(C(=O)O)N2C(=O)CC2S1(=O)=O (stereo not shown) ?
Result: 1500

---

test: Blood levels after oral administration to mice (Table 4); type: in vivo; conditions: mouse, 100 mg/kg, oral 100 mg/kg, 90 min, assay organism E. coli A-9675, read-out: Blood level
readout_name: concentration at […] (ng/mL)
Report the figure in ng/mL without appending any unit label.

Task: Which value of concentration at […] has been reported for CC1(CCl)C(C(=O)O)N2C(=O)CC2S1(=O)=O (stereo not shown) in the records?
Result: 2300

---

assay: Blood levels after oral administration to mice (Table 4); type: in vivo; conditions: mouse, 200 mg/kg, oral 200 mg/kg, 15 min, assay organism S. aureus A-9606, read-out: Blood level
readout_name: concentration at […] (ng/mL)
Express it in ng/mL; write the number only.

Task: Need concentration at […], item CC1(CCl)C(C(=O)O)N2C(=O)CC2S1(=O)=O (stereo not shown)
Result: 7400

---

assay: Blood levels after oral administration to mice (Table 4); assay type: in vivo; conditions: mouse, 200 mg/kg, oral 200 mg/kg, 90 min, assay organism S. aureus A-9606, read-out: Blood level
readout_name: concentration at […] (ng/mL)
Give just the number in ng/mL; leave the unit off.

Task: Could you tell me which concentration at […] is on file for CC1(CCl)C(C(=O)O)N2C(=O)CC2S1(=O)=O (stereo not shown) ?
Result: 4100

---

assay: Blood levels and half-life of BL-P2024 after oral administration of various doses to mice (Table 5); format: in vivo; conditions: mouse, oral 200 mg/kg, assay organism S. aureus A9606
readout_name: half-life (h)
The answer is to be given in h; state only the numeric part.

Task: Which half-life is reported for this molecule? CC(C)(C)C(=O)OCOC(=O)C1N2C(=O)CC2S(=O)(=O)C1(C)CCl (stereo not shown)
Result: 1

---

assay: Blood levels and half-life of BL-P2024 after oral administration of various doses to mice (Table 5); type: in vivo; conditions: mouse, oral 50 mg/kg
readout_name: half-life (h)
The response must be a number in h with no trailing unit.

Task: Need half-life of CC(C)(C)C(=O)OCOC(=O)C1N2C(=O)CC2S(=O)(=O)C1(C)CCl (stereo not shown) , thanks.
Result: 1

---

experiment: Blood levels after oral administration to mice (Table 4); format: in vivo; conditions: mouse, 100 mg/kg, oral 100 mg/kg, 120 min, assay organism S. aureus A-9606, read-out: Blood level
readout_name: concentration at 2 h

Task: Dear colleague, I am looking for the recorded concentration at 2 h of the following molecule: CC1(CCl)C(C(=O)O)N2C(=O)CC2S1(=O)=O (stereo not shown) [BL-P2013]
Result: < 2600 ng/mL

---

test: Blood levels after oral administration to mice (Table 4); assay type: in vivo; details: mouse, 100 mg/kg, oral 100 mg/kg, 30 min, assay organism S. aureus A-9606, read-out: Blood level
readout_name: concentration at 0.5 h (ng/mL)
# unit: ng/mL | format: bare number

Task: Bench note: what concentration at 0.5 h did CC1(CCl)C(C(=O)O)N2C(=O)CC2S1(=O)=O (stereo not shown) show?
Result: 4100

---

assay: Blood levels after oral administration to mice (Table 4); assay type: in vivo; conditions: mouse, 100 mg/kg, oral 100 mg/kg, 15 min, assay organism E. coli A-9675, read-out: Blood level
readout_name: concentration at […] (ng/mL)
Form entry: value (ng/mL) — number only.

Task: # query: concentration at […] of entry CC1(CCl)C(C(=O)O)N2C(=O)CC2S1(=O)=O (stereo not shown)
Result: 4500

---

assay: Blood levels and half-life of BL-P2024 after oral administration of various doses to mice (Table 5); format: in vivo; details: mouse, oral 100 mg/kg, 15 min, read-out: Blood level
readout_name: concentration at […] (ng/mL)
State the answer as a number, implicitly in ng/mL.

Task: Given CC(C)(C)C(=O)OCOC(=O)C1N2C(=O)CC2S(=O)(=O)C1(C)CCl (stereo not shown) , state its recorded concentration at […].
Result: 12300

---

assay: Blood levels and half-life of BL-P2024 after oral administration of various doses to mice (Table 5); type: in vivo; details: mouse, oral 50 mg/kg, 150 min, read-out: Blood level
readout_name: concentration at […] (ng/mL)
Numbers only here, please. The scale is ng/mL.

Task: Query (compound): CC(C)(C)C(=O)OCOC(=O)C1N2C(=O)CC2S(=O)(=O)C1(C)CCl (stereo not shown) ; field requested: concentration at […]
Result: 2300

---

test: Blood levels and half-life of BL-P2024 after oral administration of various doses to mice (Table 5); format: in vivo; conditions: mouse, oral 200 mg/kg, 90 min, assay organism S. aureus A9606, read-out: Blood level
readout_name: concentration at […] (ng/mL)
Give just the number in ng/mL; leave the unit off.

Task: Give its concentration at […] value. Item: CC(C)(C)C(=O)OCOC(=O)C1N2C(=O)CC2S(=O)(=O)C1(C)CCl (stereo not shown)
Result: 8700

---

experiment: Blood levels and half-life of BL-P2024 after oral administration of various doses to mice (Table 5); assay type: in vivo; conditions: mouse, oral 100 mg/kg, 60 min, read-out: Blood level
readout_name: concentration at 1 h
Show the value, then the unit it is measured in.

Task: Can you look up the measured concentration at 1 h of CC(C)(C)C(=O)OCOC(=O)C1N2C(=O)CC2S(=O)(=O)C1(C)CCl (stereo not shown) for me?
Result: 9400 ng/mL

---

experiment: Blood levels after oral administration to mice (Table 4); assay type: in vivo; conditions: mouse, 200 mg/kg, oral 200 mg/kg, 60 min, assay organism S. aureus A-9606, read-out: Blood level
readout_name: concentration at 1 h
In your response, put the unit directly after the numeric value.

Task: Value lookup for concentration at 1 h; key = CC1(CCl)C(C(=O)O)N2C(=O)CC2S1(=O)=O (stereo not shown) [BL-P2013]
Result: 7100 ng/mL

---

experiment: in vivo; parameters: species or system mice; details: mouse, blood, po, 100 mg/kg, Test 2, oral 100 mg/kg, 60 min; read-out: Blood level
readout_name: concentration at 1 h (ng/mL)
Supply the numeric figure in ng/mL, leaving out any unit text.

Task: Given CC(C)(C)C(=O)OCOC(=O)C1N2C(=O)CC2S(=O)(=O)C1(C)CCl (stereo not shown) [BL-P2024] , state its recorded concentration at 1 h.
Result: 7800

---

test: Blood levels after oral administration to mice (Table 4); format: in vivo; conditions: mouse, 200 mg/kg, oral 200 mg/kg, 120 min, assay organism S. aureus A-9606, read-out: Blood level
readout_name: concentration at 2 h (ng/mL)
Numeric only. Scale: ng/mL

Task: What value of concentration at 2 h has been recorded for this entry: CC1(CCl)C(C(=O)O)N2C(=O)CC2S1(=O)=O (stereo not shown)
Result: 2800
